molecular target: human MC5R (Homo sapiens); construct: purchased Perkin Elmer RBXMC5M400UA; test: Human MC5R radioligand binding assay ([125I] NDP-MSH displacement, hMC5R membranes); conditions: hMC5R assay as in Example 102; compounds tested as trifluoroacetate or hydrochloride salts, or as free base
# maps each entry to its IC50

Use these answered entries as a reference point.
molecule	target-system	value
N=C(N)NCCC[C@@H]1N[C@H](CNC(=O)c2ccc(Cl)cc2Cl)CCN(CC(c2ccccc2)c2ccccc2)C1=O	human MC5R (Homo sapiens)	< 0.1 µM
O=C(NC[C@@H]1CCN(Cc2cc(Cl)cc(Cl)c2)C(=O)[C@H](CN2CCCCC2)N1)c1ccc(Cl)c(Cl)c1	human MC5R (Homo sapiens)	< 1 µM
N=C(N)NCCC[C@@H]1N[C@H](CNC(=O)/C=C/c2c(F)cccc2Cl)CCN(CC(c2ccccc2)c2ccccc2)C1=O	human MC5R (Homo sapiens)	< 0.1 µM
CN1[C@H](CNC(=O)/C=C/c2ccc(F)cc2)CCN(CC(c2ccccc2)c2ccccc2)C(=O)[C@@H]1CCCN	human MC5R (Homo sapiens)	< 1 µM
NC(=O)CC[C@@H]1N[C@H](CNC(=O)/C=C/c2ccc(Cl)cc2)CCN(CC(c2ccccc2)c2ccccc2)C1=O	human MC5R (Homo sapiens)	< 1 µM

In the following, a different molecule is considered.
The reported IC50 of the molecule NCCC[C@@H]1N[C@H](CNC(=O)c2ccc(-c3ccc(Cl)cc3)o2)CCN(CC(c2ccccc2)c2ccccc2)C1=O was < 0.1 µM

====

biological target: human MC5R (Homo sapiens, UniProt P33032); construct: purchased Perkin Elmer RBXMC5M400UA; test: Human MC5R radioligand binding assay ([125I] NDP-MSH displacement, hMC5R membranes); conditions: hMC5R assay as in Example 102; compounds tested as trifluoroacetate or hydrochloride salts, or as free base
Sequence (P33032 whole entry): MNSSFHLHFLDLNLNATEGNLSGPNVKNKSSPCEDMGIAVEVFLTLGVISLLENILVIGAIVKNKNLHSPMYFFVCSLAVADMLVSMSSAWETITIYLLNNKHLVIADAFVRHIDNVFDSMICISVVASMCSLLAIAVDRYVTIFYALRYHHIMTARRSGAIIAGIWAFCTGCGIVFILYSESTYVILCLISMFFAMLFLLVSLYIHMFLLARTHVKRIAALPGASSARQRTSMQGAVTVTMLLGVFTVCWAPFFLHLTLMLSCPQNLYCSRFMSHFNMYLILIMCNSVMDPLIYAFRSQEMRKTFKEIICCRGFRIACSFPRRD
observed-property: IC50

molecule	IC50
N=C(N)NCCC[C@@H]1N[C@H](CNC(=O)c2cc(Cl)cc(Cl)c2)CCN(CC(c2ccccc2)c2ccccc2)C1=O [Compound 154]	< 1000 nM

response.value for N=C(N)NCCC[C@@H]1N[C@H](CNC(=O)/C=C/c2ccc(Cl)cc2Cl)CCN(CC(c2ccccc2)c2ccccc2)C1=O [Compound 160] (field: IC50) = < 100 nM

Form: molecule = NCCC[C@@H]1N[C@H](CNC(=O)c2csc(-c3ccccc3)n2)CCN(CC(c2ccccc2)c2ccccc2)C1=O [Compound 242] ; IC50 = < 1000 nM

====

Listed here are molecules together with their documented IC50.
target: human MC5R (Homo sapiens, UniProt P33032); construct: purchased Perkin Elmer RBXMC5M400UA; experiment: Human MC5R radioligand binding assay ([125I] NDP-MSH displacement, hMC5R membranes); conditions: hMC5R binding assay as in Example 102; compounds tested as trifluoroacetate or hydrochloride salts, or as free base

Some solved entries appear below for comparison.
molecule	value
CC[C@H](CN1CC[C@@H](CNC(=O)c2ccc3cc(Cl)ccc3c2)N[C@@H](CCN2CCCCC2)C1=O)c1ccccc1 [Compound 569]	< 0.01 µM
CC[C@H](CN1CC[C@H](CNC(=O)c2ccc3cc(Cl)ccc3c2)N[C@H](CC(C)(C)N)C1=O)c1ccccc1 [Compound 494]	< 10 µM

The record that follows has no IC50 shown yet.
response.value for CC[C@H](CN1CC[C@H](CNC(=O)c2ccc3cc(Cl)ccc3c2)N[C@@H](CCN2CCCCC2)C1=O)c1ccccc1 [Compound 581] (field: IC50) = < 0.1 µM

====

biological target: human MC5R (Homo sapiens, UniProt P33032); construct: purchased Perkin Elmer RBXMC5M400UA; experiment: Human MC5R radioligand binding assay ([125I] NDP-MSH displacement, hMC5R membranes); details: hMC5R assay as in Example 102; compounds tested as trifluoroacetate or hydrochloride salts, or as free base
observed-property: IC50

The following compounds have reported results that may help.
compound	IC50
O=C(/C=C/c1ccc(Cl)cc1)NC[C@@H]1CCN(CC(c2ccccc2)c2ccccc2)C(=O)[C@H](CCC2CCCCC2)N1 [Compound 322]	< 1000 nM
N=C(N)NCCC[C@@H]1N[C@H](CNC(=O)C2Cc3ccccc3C2)CCN(CC(c2ccccc2)c2ccccc2)C1=O [Compound 133]	< 10000 nM
N=C(N)NCCC[C@@H]1N[C@H](CNC(=O)/C=C/c2ccc(O)cc2)CCN(CC(c2ccccc2)c2ccccc2)C1=O [Compound 169]	< 1000 nM
CC(C)(C)c1ccc(C(=O)NC[C@@H]2CCN(CC(c3ccccc3)c3ccccc3)C(=O)[C@H](CCCNC(=N)N)N2)cc1 [Compound 145]	< 1000 nM
N=C(N)NCCC[C@@H]1N[C@H](CNC(=O)CC2CCCCC2)CCN(CC(c2ccccc2)c2ccccc2)C1=O [Compound 147]	< 1000 nM

For the compound O=C(/C=C/c1ccc(Cl)cc1)NC[C@@H]1CCN(Cc2cc(Cl)cc(Cl)c2)C(=O)[C@H](CCN2CCCCC2)N1 [Compound 345] , the measured IC50 on human MC5R (Homo sapiens, UniProt P33032) was < 10 nM

Entry NCCCC[C@@H]1N[C@H](CNC(=O)c2ccc3ccccc3c2)CCN(Cc2cccc3ccccc23)C1=O [Compound 117] , tested on human MC5R (Homo sapiens, UniProt P33032), has a reported IC50 of < 1000 nM

====

Each record here notes measured pIC50.
target: human MC5R (Homo sapiens); construct: purchased Perkin Elmer RBXMC5M400UA; experiment: Human MC5R radioligand binding assay ([125I] NDP-MSH displacement, hMC5R membranes); conditions: hMC5R assay as in Example 102; compounds tested as trifluoroacetate or hydrochloride salts, or as free base
pIC50: −log10 of the molar value.

smiles-str	pIC50
COc1cccc(/C=C/C(=O)NC[C@@H]2CCN(CC(c3ccccc3)c3ccccc3)C(=O)[C@H](CCCNC(=N)N)N2)c1	> 6.00
N=C(N)NCCC[C@@H]1N[C@H](CNC(=O)/C=C/c2cccs2)CCN(CC(c2ccccc2)c2ccccc2)C1=O	> 7.00

So, CCC(CC)CN1CC[C@@H](CNC(=O)c2ccc3ccccc3c2)N[C@@H](CCN)C1=O ? Its pIC50 was > 6.00

Entry Cc1ccc(C(=O)NC[C@@H]2CCN(CC(c3ccccc3)c3ccccc3)C(=O)[C@H](CCCN)N2)cc1C ; pIC50 = > 6.00

====

target: human MC5R (Homo sapiens, UniProt P33032); construct: purchased Perkin Elmer RBXMC5M400UA; experiment: Human MC5R radioligand binding assay ([125I] NDP-MSH displacement, hMC5R membranes); settings: hMC5R assay as in Example 102; compounds tested as trifluoroacetate or hydrochloride salts, or as free base
observed-property: IC50

Some entries whose results are on file:
compound	IC50
CCCC[C@@H]1N[C@H](CNC(=O)/C=C/c2ccc(Cl)cc2)CCN(CC(c2ccccc2)c2ccccc2)C1=O	< 1000 nM
NCC[C@@H]1N[C@H](CCNC(=O)c2ccc(Cl)c(Cl)c2)CCN(CC(c2ccccc2)c2ccccc2)C1=O	< 1000 nM
NCCC[C@@H]1N[C@H](CNC(=O)c2cc(-c3ccccc3)n[nH]2)CCN(CC(c2ccccc2)c2ccccc2)C1=O	< 1000 nM

Consider NCC[C@@H]1N[C@H](CNC(=O)/C=C/c2ccc(Cl)cc2)CCN(Cc2cc(Cl)cc(Cl)c2)C1=O . Its measured IC50 is < 100 nM

Quick note, IC50 for N#Cc1ccc(/C=C/C(=O)NC[C@@H]2CCN(CC(c3ccccc3)c3ccccc3)C(=O)[C@H](CCCN)N2)cc1 landed at < 1000 nM

// field: IC50; key: Cc1ccc(/C=C/C(=O)NC[C@@H]2CCN(CC(c3ccccc3)c3ccccc3)C(=O)[C@H](CCCN)N2)cc1 ; value = < 100 nM

# IC50 of O=C(NC[C@@H]1CCN(Cc2cc(Cl)cc(Cl)c2)C(=O)[C@H](CN2CCCC2)N1)c1ccc2ccccc2c1 = < 1000 nM

// IC50 lookup, compound = NCC[C@@H]1N[C@H](CCNC(=O)c2ccccc2)CCN(CC(c2ccccc2)c2ccccc2)C1=O , result: < 10000 nM

====

target: human MC5R (Homo sapiens); construct: purchased Perkin Elmer RBXMC5M400UA; experiment: Human MC5R radioligand binding assay ([125I] NDP-MSH displacement, hMC5R membranes); conditions: hMC5R assay as in Example 102; compounds tested as trifluoroacetate or hydrochloride salts, or as free base
observed-property: IC50

Consider the following illustrative entries.
smiles-str	target-system	IC50
CCC(CC)CN1CC[C@@H](CNC(=O)c2ccc(Cl)c(C)c2)N[C@@H](CCN)C1=O	human MC5R (Homo sapiens)	< 10 µM
N=C(N)NCCC[C@@H]1N[C@H](CNC(=O)/C=C/c2ccccc2F)CCN(CC(c2ccccc2)c2ccccc2)C1=O	human MC5R (Homo sapiens)	< 0.1 µM

get_value(item= NCCCC[C@@H]1N[C@H](CNC(=O)Cc2ccc3ccccc3c2)CCN(Cc2cccc3ccccc23)C1=O , readout=IC50) returns < 10 µM

Entry N=C(N)NCCC[C@@H]1N[C@H](CNC(=O)/C=C/c2cccc(Cl)c2)CCN(CC(c2ccccc2)c2ccccc2)C1=O — recorded IC50 = < 0.1 µM
